System: MDA-MB-231 breast
Assay: NCI tumour cell line growth inhibition, 48 h
observed property: GI50

>>> recorded_value("COc1cc2nccc(Oc3ccc(NC(=O)NC4CC4)c(Cl)c3)c2cc1C(N)=O")
"11.5 µM"
>>> recorded_value("CCN(CC)CCNc1ccc(C)c2sc3cc(Cl)ccc3c(=O)c12")
"1.41 µM"
>>> recorded_value("O=C(c1ccco1)c1nc2cc(C(F)(F)F)ccc2nc1C(F)(F)F")
"99.1 µM"
>>> recorded_value("CSc1ccc(-c2ccccc(=O)c2O)cc1")
"0.603 µM"

---

Tested on: SK-OV-3 ovarian
Experiment: NCI tumour cell line growth inhibition, 48 h
# Lookup of reported TGI keyed by entry
observed property: TGI (µM)

>>> recorded_value("c1ccc(N2N=C(c3cccc(Nc4ccncc4)c3)CC2c2ccc3c(c2)OCO3)cc1 (centres undefined)")
10.2
>>> recorded_value("COc1ccc(CC2C3=C(CCN2C(=O)C2CCC2)CC2(CC3)OCCO2)cc1O (centres undefined)")
88.1
>>> recorded_value("CC1(C)N=C(N)N=C(N)N1c1ccc(CCCCc2ccccc2)c(Cl)c1")
11.1
>>> recorded_value("O=P1(Oc2ccccc2)N=P(c2ccccc2)(c2ccccc2)C=C(c2ccc(Cl)cc2)N1 (centres undefined)")
26
>>> recorded_value("CCC(CC)c1nc(Nc2ccc(C(=O)OC)cc2)c2ccccc2n1")
19
